Please provide measured viability, T/C for the entries that follow.
Test system: 885724-159-R-J1-PDC complex spheroid viability
Assay: Anticancer human tumor 885724-159-R-J1-PDC patient-derived pancreatic adenocarcinoma cell line growth inhibition [POLQ]
Details: second compound 1 µM; first compound 3.16 µM; active compounds read low
Express your answer in %, writing the number without its unit.

// CC1COCCN1c1cc(-c2ccnn2C)c2ccnc(-c3ccn[nH]3)c2n1 (stereo not given) + Nc1ccc(C#CCN(C(=O)Cc2ncc(C(F)(F)F)cc2C(F)(F)F)c2ccc(F)cc2)nn1 : viability, T/C value = 49.9

// COc1ccc([C@@H](O)c2cc(-c3ncnc4cc(N5CCOCC5)ccc34)c(F)cc2Cl)nn1 + COC1C(OC(N)=O)C(O)C(Oc2ccc3c(O)c(NC(=O)c4ccc(O)c(CC=C(C)C)c4)c(=O)oc3c2C)OC1(C)C : viability, T/C value = 61.9

// CCc1cc2c(N3CCc4c(cc(Cn5ccnc5)cc4-c4cn(C)nc4C(F)(F)F)C3=O)cc(C)nc2c(OC)n1 + COC1C(OC(N)=O)C(O)C(Oc2ccc3c(O)c(NC(=O)c4ccc(O)c(CC=C(C)C)c4)c(=O)oc3c2C)OC1(C)C : viability, T/C value = 74.5

// C#Cc1c(F)ccc2cc(O)cc(-c3ncc4c(N5CC6CCC(C5)N6)nc(OCC56CCCN5CC(F)C6)nc4c3F)c12 (stereo not given) + Cc1cccc(N(C)C(=O)C2C(O)CCN2c2nc(C)cc(C(F)(F)F)c2C#N)c1 : viability, T/C value = 44.2

// CCc1cc2c(N3CCc4c(cc(Cn5ccnc5)cc4-c4cn(C)nc4C(F)(F)F)C3=O)ccnc2c(OC)n1 + Cc1cccc(N(C)C(=O)C2C(O)CCN2c2nc(C)cc(C(F)(F)F)c2C#N)c1 : viability, T/C value = 85.5

====

Test system: 885724-159-R-J1-PDC complex spheroid viability
Assay: Anticancer human tumor 885724-159-R-J1-PDC cell line growth inhibition [POLQ];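 further: spheroids exposed to compounds for 7 days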
Conditions: second compound 1 µM; first compound 3.16 µM; active compounds read low
Binary label based on viability, T/C with cut-off 50%: below gives criterion met, not below gives criterion not met.

Just wondering, is viability, T/C of CNCc1ccc(-c2[nH]c3cc(F)cc4c3c2CCNC4=O)cc1 + Nc1ccc(C#CCN(C(=O)Cc2ncc(C(F)(F)F)cc2C(F)(F)F)c2ccc(F)cc2)nn1 below 50%?
criterion not met

Just wondering, is viability, T/C of CCc1cc2c(N3CCc4c(cc(Cn5ccnc5)cc4-c4cn(C)nc4C(F)(F)F)C3=O)cc(C)nc2c(OC)n1 + Nc1ccc(C#CCN(C(=O)Cc2ncc(C(F)(F)F)cc2C(F)(F)F)c2ccc(F)cc2)nn1 below 50%?
criterion not met

Just wondering, is viability, T/C of CC(C)n1c(=O)n(C)c2cnc3cc(F)c(-c4ccc(OCCCN5CCCCC5)nc4)cc3c21 + Cc1cccc(N(C)C(=O)C2C(O)CCN2c2nc(C)cc(C(F)(F)F)c2C#N)c1 below 50%?
criterion not met

Just wondering, is viability, T/C of CC(C)n1c(=O)n(C)c2cnc3cc(F)c(-c4ccc(OCCCN5CCCCC5)nc4)cc3c21 + Nc1ccc(C#CCN(C(=O)Cc2ncc(C(F)(F)F)cc2C(F)(F)F)c2ccc(F)cc2)nn1 below 50%?
criterion not met

Just wondering, is viability, T/C of Nc1ccn(C2OC(CO)C(O)C2(F)F)c(=O)n1 (configuration not stated) + COC1C(OC(N)=O)C(O)C(Oc2ccc3c(O)c(NC(=O)c4ccc(O)c(CC=C(C)C)c4)c(=O)oc3c2C)OC1(C)C below 50%?
criterion met

Just wondering, is viability, T/C of COc1cccc2c1C(=O)c1c(O)c3c(c(O)c1C2=O)CC(O)(C(=O)CO)CC3OC1CC(N)C(O)C(C)O1 (configuration not stated) + Nc1ccc(C#CCN(C(=O)Cc2ncc(C(F)(F)F)cc2C(F)(F)F)c2ccc(F)cc2)nn1 below 50%?
criterion met

====

System: 885724-159-R-J1-PDC complex spheroid viability
Assay: Anticancer human tumor 885724-159-R-J1-PDC cell line growth inhibition [POLQ];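 further: spheroids exposed to compounds for 7 days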
Settings: second compound 3.16 µM; first compound 0.0316 µM; active compounds read low
Binary label based on viability, T/C with cut-off 90%: below gives Fulfilled, not below gives Not fulfilled.

Just wondering, is viability, T/C of CCc1cc2c(N3CCc4c(cc(Cn5ccnc5)cc4-c4cn(C)nc4C(F)(F)F)C3=O)ccnc2c(OC)n1 + Nc1ccc(C#CCN(C(=O)Cc2ncc(C(F)(F)F)cc2C(F)(F)F)c2ccc(F)cc2)nn1 below 90%?
Fulfilled

Just wondering, is viability, T/C of CCCS(=O)(=O)Nc1ccc(F)c(C(=O)c2c[nH]c3ncc(-c4ccc(Cl)cc4)cc23)c1F + COC1C(OC(N)=O)C(O)C(Oc2ccc3c(O)c(NC(=O)c4ccc(O)c(CC=C(C)C)c4)c(=O)oc3c2C)OC1(C)C below 90%?
Not fulfilled

Just wondering, is viability, T/C of COc1cccc2c1C(=O)c1c(O)c3c(c(O)c1C2=O)CC(O)(C(=O)CO)CC3OC1CC(N)C(O)C(C)O1 (configuration not stated) + COC1C(OC(N)=O)C(O)C(Oc2ccc3c(O)c(NC(=O)c4ccc(O)c(CC=C(C)C)c4)c(=O)oc3c2C)OC1(C)C below 90%?
Fulfilled

Just wondering, is viability, T/C of COc1cc(C2c3cc4c(cc3C(OC3OC5COC(C)OC5C(O)C3O)C3COC(=O)C23)OCO4)cc(OC)c1O (configuration not stated) + Cc1cccc(N(C)C(=O)C2C(O)CCN2c2nc(C)cc(C(F)(F)F)c2C#N)c1 below 90%?
Not fulfilled

Just wondering, is viability, T/C of Cn1ncnc1[C@H]1c2n[nH]c(=O)c3cc(F)cc(c23)N[C@@H]1c1ccc(F)cc1 + Nc1ccc(C#CCN(C(=O)Cc2ncc(C(F)(F)F)cc2C(F)(F)F)c2ccc(F)cc2)nn1 below 90%?
Fulfilled

Just wondering, is viability, T/C of Cn1ncnc1[C@H]1c2n[nH]c(=O)c3cc(F)cc(c23)N[C@@H]1c1ccc(F)cc1 + COC1C(OC(N)=O)C(O)C(Oc2ccc3c(O)c(NC(=O)c4ccc(O)c(CC=C(C)C)c4)c(=O)oc3c2C)OC1(C)C below 90%?
Not fulfilled

Just wondering, is viability, T/C of Nc1ccn(C2OC(CO)C(O)C2(F)F)c(=O)n1 (configuration not stated) + Nc1ccc(C#CCN(C(=O)Cc2ncc(C(F)(F)F)cc2C(F)(F)F)c2ccc(F)cc2)nn1 below 90%?
Fulfilled

====

Tested on: 885724-159-R-J1-PDC complex spheroid viability
Test: Anticancer human tumor 885724-159-R-J1-PDC cell line growth inhibition [POLQ];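 further: spheroids exposed to compounds for 7 days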
Details: second compound 0.316 µM; first compound 10 µM; active compounds read low
Please provide measured viability, T/C for the entries that follow.
Express your answer in %, writing the number without its unit.

// COc1cc2cc(C(=O)CCC(=O)O)sc2cc1OC + COC1C(OC(N)=O)C(O)C(Oc2ccc3c(O)c(NC(=O)c4ccc(O)c(CC=C(C)C)c4)c(=O)oc3c2C)OC1(C)C : viability, T/C value = 81

// O=C(c1cc(Cc2n[nH]c(=O)c3ccccc23)ccc1F)N1CCN(C(=O)C2CC2)CC1 + Cc1cccc(N(C)C(=O)C2C(O)CCN2c2nc(C)cc(C(F)(F)F)c2C#N)c1 : viability, T/C value = 75.9

// C#Cc1c(F)ccc2cc(O)cc(-c3ncc4c(N5CC6CCC(C5)N6)nc(OCC56CCCN5CC(F)C6)nc4c3F)c12 (stereo not given) + COC1C(OC(N)=O)C(O)C(Oc2ccc3c(O)c(NC(=O)c4ccc(O)c(CC=C(C)C)c4)c(=O)oc3c2C)OC1(C)C : viability, T/C value = 22.6

// C#Cc1c(F)ccc2cc(O)cc(-c3ncc4c(N5CC6CCC(C5)N6)nc(OCC56CCCN5CC(F)C6)nc4c3F)c12 (stereo not given) + Cc1cccc(N(C)C(=O)C2C(O)CCN2c2nc(C)cc(C(F)(F)F)c2C#N)c1 : viability, T/C value = 20.6

// CNCc1ccc(-c2[nH]c3cc(F)cc4c3c2CCNC4=O)cc1 + COC1C(OC(N)=O)C(O)C(Oc2ccc3c(O)c(NC(=O)c4ccc(O)c(CC=C(C)C)c4)c(=O)oc3c2C)OC1(C)C : viability, T/C value = 81.2

====

System: 885724-159-R-J1-PDC complex spheroid viability
Assay: Anticancer human tumor 885724-159-R-J1-PDC cell line growth inhibition [POLQ];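 further: spheroids exposed to compounds for 7 days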
Details: second compound 0.0316 µM; first compound 0.316 µM; active compounds read low
Binary label based on viability, T/C with cut-off 90%: below gives Condition met, not below gives Condition not met.

Just wondering, is viability, T/C of CC1COCCN1c1cc(C2(S(C)(=N)=O)CC2)nc(-c2ccnc3[nH]ccc23)n1 (stereo unspecified) + COC1C(OC(N)=O)C(O)C(Oc2ccc3c(O)c(NC(=O)c4ccc(O)c(CC=C(C)C)c4)c(=O)oc3c2C)OC1(C)C below 90%?
Condition not met

Just wondering, is viability, T/C of COc1cc(C2c3cc4c(cc3C(OC3OC5COC(C)OC5C(O)C3O)C3COC(=O)C23)OCO4)cc(OC)c1O (stereo unspecified) + Cc1cccc(N(C)C(=O)C2C(O)CCN2c2nc(C)cc(C(F)(F)F)c2C#N)c1 below 90%?
Condition met

Just wondering, is viability, T/C of O=c1[nH]cc(F)c(=O)[nH]1 + Nc1ccc(C#CCN(C(=O)Cc2ncc(C(F)(F)F)cc2C(F)(F)F)c2ccc(F)cc2)nn1 below 90%?
Condition not met

Just wondering, is viability, T/C of COc1cccc(OCCCN)c1-c1cc(Nc2cnc(C#N)cn2)n[nH]1 + COC1C(OC(N)=O)C(O)C(Oc2ccc3c(O)c(NC(=O)c4ccc(O)c(CC=C(C)C)c4)c(=O)oc3c2C)OC1(C)C below 90%?
Condition met

Just wondering, is viability, T/C of COc1cc2cc(C(=O)CCC(=O)O)sc2cc1OC + Cc1cccc(N(C)C(=O)C2C(O)CCN2c2nc(C)cc(C(F)(F)F)c2C#N)c1 below 90%?
Condition not met

Just wondering, is viability, T/C of CC(C)n1c(=O)n(C)c2cnc3cc(F)c(-c4ccc(OCCCN5CCCCC5)nc4)cc3c21 + Nc1ccc(C#CCN(C(=O)Cc2ncc(C(F)(F)F)cc2C(F)(F)F)c2ccc(F)cc2)nn1 below 90%?
Condition not met
